# System: Rattus norvegicus
# assay name: In vivo inhibition of xanthine oxidase in Wistar rat assessed as retention time of 6-MP at 50 mg/kg, ip using 6-mercaptopurine as substrate after 6 hrs by UPLC method (reference value: 4.912 min)
# Type: functional, organism-based
metric: Retention time (min)
Numbers only, in min.

Worked set:
O=C(N/N=C/c1c(O)cc(O)cc1O)c1ccncc1
4.92
O=C(N/N=C/c1ccc(O)c(O)c1)c1cccnc1
4.9
O=C(N/N=C/c1ccc(O)c(O)c1)c1ccncc1
4.95

Let us move to another entry and its Retention time.
Look up Retention time for this molecule: Oc1ncnc2[nH]ncc12 4.93

###

# measured target: Xanthine dehydrogenase/oxidase (Bos taurus, UniProt P80457)
# Sequence (P80457 whole entry): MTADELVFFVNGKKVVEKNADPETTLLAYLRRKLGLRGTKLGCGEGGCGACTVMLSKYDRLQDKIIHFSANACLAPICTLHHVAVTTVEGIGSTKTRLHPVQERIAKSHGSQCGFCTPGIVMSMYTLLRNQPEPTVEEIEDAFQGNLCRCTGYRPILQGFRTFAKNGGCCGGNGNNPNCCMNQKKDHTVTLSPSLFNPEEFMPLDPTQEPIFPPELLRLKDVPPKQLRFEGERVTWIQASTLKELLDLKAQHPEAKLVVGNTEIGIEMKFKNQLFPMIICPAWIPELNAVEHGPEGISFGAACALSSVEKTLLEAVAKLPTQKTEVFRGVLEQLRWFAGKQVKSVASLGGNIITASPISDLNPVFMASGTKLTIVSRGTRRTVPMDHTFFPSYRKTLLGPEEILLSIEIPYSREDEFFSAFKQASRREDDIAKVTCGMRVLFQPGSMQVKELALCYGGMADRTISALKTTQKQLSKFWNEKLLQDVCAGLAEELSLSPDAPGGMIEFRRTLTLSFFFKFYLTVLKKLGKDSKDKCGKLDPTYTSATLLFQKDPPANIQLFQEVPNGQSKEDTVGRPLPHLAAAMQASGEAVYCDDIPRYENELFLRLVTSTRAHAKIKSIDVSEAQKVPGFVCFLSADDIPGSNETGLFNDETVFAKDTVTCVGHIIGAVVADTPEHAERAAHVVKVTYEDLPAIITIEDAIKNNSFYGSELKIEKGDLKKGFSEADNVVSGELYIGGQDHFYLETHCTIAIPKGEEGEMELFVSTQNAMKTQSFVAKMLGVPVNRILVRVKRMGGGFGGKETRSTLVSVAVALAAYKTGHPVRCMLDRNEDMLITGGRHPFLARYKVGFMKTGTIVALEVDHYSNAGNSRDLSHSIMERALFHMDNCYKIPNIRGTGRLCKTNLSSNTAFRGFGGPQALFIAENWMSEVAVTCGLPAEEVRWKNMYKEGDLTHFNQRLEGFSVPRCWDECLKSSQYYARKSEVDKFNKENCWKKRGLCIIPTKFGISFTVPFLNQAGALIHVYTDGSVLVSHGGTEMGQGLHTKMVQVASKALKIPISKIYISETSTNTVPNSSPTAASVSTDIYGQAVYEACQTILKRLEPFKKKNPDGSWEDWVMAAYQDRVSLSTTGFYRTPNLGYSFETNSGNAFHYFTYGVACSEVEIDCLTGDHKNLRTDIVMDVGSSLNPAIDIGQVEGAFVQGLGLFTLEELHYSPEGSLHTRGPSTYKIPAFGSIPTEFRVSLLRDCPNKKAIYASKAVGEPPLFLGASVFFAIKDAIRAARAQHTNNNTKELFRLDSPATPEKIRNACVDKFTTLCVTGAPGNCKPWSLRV
# assay name: Inhibition of bovine xanthine oxidase using xanthine as substrate preincubated for 10 mins followed by substrate addition measured for 15 mins by spectrophotometric method
# test parameters: read-out: IC50
metric: IC50

Worked set:
O=C(N/N=C/c1ccccc1)c1cccnc1 [NICOTINIC ACID BENZYLIDENE-HYDRAZIDE]
211 µM
O=C(N/N=C/c1ccc(Cl)cc1)c1cccnc1
195 µM
O=C(N/N=C/c1cc(O)cc(O)c1)c1cccnc1
161 µM
Cc1ccccc1/C=N/NC(=O)c1cccnc1
180 µM
O=C(N/N=C/c1ccc(Cl)cc1)c1ccncc1
179 µM

Here are 4 molecules. What values of IC50 were reported for them?
1. O=C(N/N=C/c1ccc(O)c(O)c1)c1ccncc1
2. CCOc1ccc(/C=N/NC(=O)c2ccncc2)cc1
3. O=C(N/N=C/c1cccc([N+](=O)[O-])c1)c1ccncc1
4. O=C(N/N=C/c1cccc([N+](=O)[O-])c1)c1cccnc1

1: 12.4 µM; 2: 330 µM; 3: 174 µM; 4: 184 µM

Here are 2 molecules. What values of IC50 were reported for them?
1. CCOc1ccc(/C=N/NC(=O)c2cccnc2)cc1
2. O=C(N/N=C/c1cccc(Cl)c1)c1ccncc1

1: 242 µM; 2: 206 µM

Look up IC50 for this molecule: COc1cccc(/C=N/NC(=O)c2cccnc2)c1O 175 µM

###

Exercise: state measured Activity for each of the compounds provided.
# Tested on: Rattus norvegicus
# assay name: In vivo inhibition of xanthine oxidase in Wistar rat assessed as peak area of 6-MP at 50 mg/kg, ip using 6-mercaptopurine as substrate after 6 hrs by UPLC method (reference value: 7.3 mAU)
# Assay type: functional
Numbers only, in mAU.

Worked set:
Oc1ncnc2[nH]ncc12 [ALLOPURINOL]
166.3
O=C(N/N=C/c1ccc(O)c(O)c1)c1cccnc1
0.001
O=C(N/N=C/c1c(O)cc(O)cc1O)c1ccncc1
73.5

Let us move to another entry and its Activity.
Look up Activity for this compound: O=C(N/N=C/c1ccc(O)c(O)c1)c1ccncc1 47.4

###

# measured target: Xanthine dehydrogenase/oxidase (Bos taurus, UniProt P80457)
metric: pKi
Answers are plain numbers, as −log10 of the molar value.

Look up pKi for this compound: O=C(N/N=C/c1ccc(O)c(O)c1)c1ccncc1 4.81

###

# measured target: Xanthine dehydrogenase/oxidase (Bos taurus)
# assay name: Inhibition of bovine xanthine oxidase using xanthine as substrate preincubated for 10 mins followed by substrate addition measured for 15 mins by spectrophotometric method
# test parameters: read-out: IC50
Exercise: state measured pIC50 for each of the compounds provided.
Answers are plain numbers, as −log10 of the molar value.

CCOc1cccc(/C=N/NC(=O)c2cccnc2)c1O
3.58
O=C(N/N=C/c1ccc(O)c(O)c1)c1cccnc1
5.00
O=C(N/N=C/c1ccccc1F)c1cccnc1
3.76
O=C(N/N=C/c1ccc(O)cc1)c1cccnc1
3.74
O=C(N/N=C/c1ccccc1Br)c1cccnc1
3.70

Here are 4 compounds. What values of pIC50 were reported for them?
1. O=C(N/N=C/c1cccc(Cl)c1)c1cccnc1
2. CCOc1cccc(/C=N/NC(=O)c2ccncc2)c1O
3. O=C(N/N=C/c1c(O)cc(O)cc1O)c1ccncc1
4. COc1cccc(/C=N/NC(=O)c2ccncc2)c1O

[3.69, 4.26, 6.02, 4.68]

Origin of the recorded values: ChEMBL document CHEMBL4011602
